Listed compounds paired with reported melting point
propertyMeasured: melting point

- compound: "Cn1c2c(c3ccccc31)C(SCCC(=O)ON1C(=O)CCC1=O)Sc1ccccc1-2 (stereo not shown)"
  measuredResult: "90 to 96 °C (dec.)"
- compound: "CCCCn1c2c(c3ccccc31)C(SCCC(=O)ON1C(=O)CCC1=O)Sc1ccccc1-2 (stereo not shown)"
  measuredResult: "76 to 81 °C (dec.)"
- compound: "CCCn1c2c(c3ccccc31)C(SCCC(=O)ON1C(=O)CCC1=O)Sc1ccccc1-2 (stereo not shown)"
  measuredResult: "77 to 82 °C (dec.)"
- compound: "CCn1c2c(c3ccccc31)C(SCCC(=O)ON1C(=O)CCC1=O)Sc1ccccc1-2 (stereo not shown)"
  measuredResult: "82 to 87 °C (dec.)"

These measurements were taken from patent US10647723B2.
